Exercise: for every item that follows, state its recorded Live Neut, WA1/2020 IC50 (pM).
Target: SARS-CoV-2 spike protein on live virus, strain USA-WA1/2020 (SARS-CoV-2, WA01/2020 strain, UniProt P0DTC2 14-1273)
Assay: cell-based or functional assay
Entry rule: numbers only, all in pM.

Can you share its Live Neut, WA1/2020 IC50 (pM)? I mean this binder: antibody 2080 (antibody, V domains shown) VH: QVQLQQWGAGLLKPSETLSLTCAVYGGSFSGYYWSWIRQPPGKGLEWIGRINDIGSTDYNPSLKSRVTISVDTSKNQFSLKLTSVTAADTAVYYCAREPFDSEGTFDYWGQGTLVIVSS VL: DIQMTQPPSTLSASVGDRVTITCRASQSISRWLAWYRQKPGKAPKLLIYDASSLQSGVPSRFSGSGSGTEFTLTISSLQPDDLATYYCQQYNTYPYTFGQGTKLEIK
169

Further, for antibody 1213 (antibody, V domains shown) VH: QMQLVQSGAEVKKTGSSVKVSCEASENTFTNRYLHWVRQAPGQALEWMGWITPFQGNTHYAQKFQDRVTITRDRSMNTVYMELSSLRSEDTAIYYCASGGQYGPGSYYFEFWGQGTLVTVSS VL: EIVMTQSPATLSVSPGERATLSCRASQSIRNNLAWYRQKPGQAPRLLIYGASTRAAGVPARFSGSGSGTEFTLTISSLQSEDFAVYYCQQYINWPPLTFGGGTKVEIK ?
2590

Further, for antibody 2729 (antibody, V domains shown) VH: QVTLKESGPVLVKPTETLTLTCTVSGFSLSNARMGVSWIRQPPGKALEWLAHIFSNDEKSYSTYLKSRLTISKDSSKSQVVLTMTIMDPVDTATYYCARTAGRYSSRWGHYYYYMDVWGKGTTVTVSS VL: NFMLTQPHSVSESPGKTVTISCTGSNGSIASNFMQWYQQRPGSAPTIVIYEDNQRPSGVPDRFSGSIDGSSNSASLTISGLKTEDEADYYCQSYDSSDSDLGVFGGGTKLTVL ?
111

Every entry's value here was drawn from patent US20230382979A1.
